Quick reference: Population Apoptotic (%) of the listed items.
- System: HEK-293T
- Assay Explanation: Multiplex assay against HEK293T
- Assay type: toxicity, cell-based
- Measurement Conditions: human, 48 h, 1 µM, compound concentration 1 uM, replicate 2

{"Molecule": "C=CC(=O)Nc1cccc(C(=O)Nc2ccc(Nc3cc(-c4[nH]c(SC)nc4C)ccn3)cc2)c1", "Tgt": "HEK-293T", "Population Apoptotic (%)": 12}
{"Molecule": "Cc1nc(-c2ccc(-c3ccc(C(=O)N4CCc5cc6c(cc54)C4(CCN(C)CC4)CO6)cc3)c(C)c2)no1", "Tgt": "HEK-293T", "Population Apoptotic (%)": 25}
{"Molecule": "COc1ncc(-c2ccc3nccc(-c4ccnnc4)c3c2)cc1NS(=O)(=O)c1ccc(F)cc1F", "Tgt": "HEK-293T", "Population Apoptotic (%)": 44}
{"Molecule": "COc1cccc([C@@H](C)NCCCc2ccccc2Cl)c1.Cl [TECALCET HYDROCHLORIDE]", "Tgt": "HEK-293T", "Population Apoptotic (%)": 23}
{"Molecule": "C=CC(=O)Nc1ccc2ncnc(Nc3ccc(OCc4cccc(F)c4)c(Cl)c3)c2c1.Cc1ccc(S(=O)(=O)O)cc1", "Tgt": "HEK-293T", "Population Apoptotic (%)": 4}
{"Molecule": "c1cn2cc(-c3ccc4cn[nH]c4c3)nc(Nc3ccc(N4CCOCC4)cc3)c2n1", "Tgt": "HEK-293T", "Population Apoptotic (%)": 18}
{"Molecule": "CC(C)(O)CNc1ncc(-c2ccnc(Nc3ccnc(Cl)c3)n2)c(CC2CC2)n1", "Tgt": "HEK-293T", "Population Apoptotic (%)": 25}
{"Molecule": "CN1CCCC(n2nc(Cc3ccc(Cl)cc3)c3ccccc3c2=O)CC1.Cl (configuration not stated) [AZELASTINE HYDROCHLORIDE]", "Tgt": "HEK-293T", "Population Apoptotic (%)": 47}
{"Molecule": "CN1CCN(c2ccc(OC(F)(F)F)c(Nc3ncc4c(n3)-c3c(c(C(N)=O)nn3CCO)CC4)c2)CC1", "Tgt": "HEK-293T", "Population Apoptotic (%)": 36}
{"Molecule": "Cc1cc(C)cc(-c2cnc3cc(Cl)c(-c4cccc(O)c4)cc3c2OCCCN)c1", "Tgt": "HEK-293T", "Population Apoptotic (%)": 33}
{"Molecule": "COc1cc(-n2cnc3cc(-c4ccc(Cl)cc4)sc3c2=O)ccc1OCCN1CCCC1", "Tgt": "HEK-293T", "Population Apoptotic (%)": 20}
{"Molecule": "CC(C)NCC(O)COc1ccc(CCOCC2CC2)cc1.Cl (configuration not stated) [BETAXOLOL HYDROCHLORIDE]", "Tgt": "HEK-293T", "Population Apoptotic (%)": 11}
{"Molecule": "Cc1[nH]c(/C=C2\\C(=O)Nc3ccc(S(=O)(=O)N(C)c4cccc(Cl)c4)cc32)c(C)c1C(=O)N1CCN(C)CC1", "Tgt": "HEK-293T", "Population Apoptotic (%)": 31}
{"Molecule": "OC1(c2ccc(Cl)cc2)CCN(Cc2c[nH]c3ccccc23)CC1", "Tgt": "HEK-293T", "Population Apoptotic (%)": 7}
{"Molecule": "O=C1NCN(c2ccccc2)C12CCN(CCCOc1ccc(F)cc1)CC2 [SPIRAMIDE]", "Tgt": "HEK-293T", "Population Apoptotic (%)": 8}
{"Molecule": "Cl.N#Cc1ccc2[nH]cc(CCCCN3CCN(c4ccc5oc(C(N)=O)cc5c4)CC3)c2c1 [VILAZODONE HYDROCHLORIDE]", "Tgt": "HEK-293T", "Population Apoptotic (%)": 33}
{"Molecule": "Cc1c(-c2ccc(O)cc2)n(Cc2ccc(OCCN3CCCCCC3)cc2)c2ccc(O)cc12", "Tgt": "HEK-293T", "Population Apoptotic (%)": 12}
{"Molecule": "CN1CCN(CCOc2cc(OC3CCOCC3)c3c(Nc4c(Cl)ccc5c4OCO5)ncnc3c2)CC1", "Tgt": "HEK-293T", "Population Apoptotic (%)": 26}
{"Molecule": "CN(C)C(=O)N[C@H]1CC[C@H](CCN2CCN(c3cccc(Cl)c3Cl)CC2)CC1.Cl [CARIPRAZINE HYDROCHLORIDE]", "Tgt": "HEK-293T", "Population Apoptotic (%)": 10}
{"Molecule": "CC[C@H](C)C(=O)O[C@H]1C[C@@H](C)C=C2C=C[C@H](C)[C@H](CC[C@@H]3C[C@@H](O)CC(=O)O3)[C@H]21", "Tgt": "HEK-293T", "Population Apoptotic (%)": 3}
{"Molecule": "CNc1nc(NCc2ccc(NS(C)(=O)=O)cc2Cl)cc(-c2ccccn2)n1", "Tgt": "HEK-293T", "Population Apoptotic (%)": 14}
{"Molecule": "Cn1cc(-c2[nH]c3cc(NC(=O)[C@H](N)C4CCCCC4)cc4c3c2C=NNC4=O)cn1", "Tgt": "HEK-293T", "Population Apoptotic (%)": 52}
{"Molecule": "CN1CCC[C@@H]1CCO[C@](C)(c1ccccc1)c1ccc(Cl)cc1.O=C(O)/C=C/C(=O)O [CLEMASTINE FUMARATE]", "Tgt": "HEK-293T", "Population Apoptotic (%)": 21}
{"Molecule": "CN(C)C(=O)/C(C#N)=C/c1ccc(-c2nc3cnc4[nH]ccc4c3n2C2CCCCC2)o1", "Tgt": "HEK-293T", "Population Apoptotic (%)": 15}
{"Molecule": "CN(C)CC#Cc1ccc(OCCCc2sc(N3CCc4cccc(C(=O)Nc5nc6ccccc6s5)c4C3)nc2C(=O)O)c(F)c1", "Tgt": "HEK-293T", "Population Apoptotic (%)": 5}
{"Molecule": "Cc1csc2c(N[C@@H](C)CN3CCN(S(=O)(=O)c4ccc(Cl)c(Cl)c4)CC3)ncnc12", "Tgt": "HEK-293T", "Population Apoptotic (%)": 29}
{"Molecule": "C[C@@H](NCCCc1cccc(C(F)(F)F)c1)c1cccc2ccccc12.Cl [CINACALCET HYDROCHLORIDE]", "Tgt": "HEK-293T", "Population Apoptotic (%)": 21}

Ref: ChEMBL document CHEMBL4689842
